# tested system: W-LmrR (Lactococcus lactis subsp. cremoris, UniProt A2RI36)
# Sequence (A2RI36 entry or part of it): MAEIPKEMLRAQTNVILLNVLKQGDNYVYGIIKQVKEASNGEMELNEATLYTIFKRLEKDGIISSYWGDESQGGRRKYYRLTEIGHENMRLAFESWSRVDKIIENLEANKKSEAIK
# assay procedure: SPR binding of drugs to immobilized wild type LmrR (W-LmrR)
# details: Binding affinity, Kd, W (wild type) LmrR, 10 °C, SPR, mean ± SD n = 3
endpoint: Kd (nM)
Give just the number in nM; leave the unit off.

Form entry - test system: W-LmrR (Lactococcus lactis subsp. cremoris, UniProt A2RI36); read-out: Kd; compound: COc1cccc2c1C(=O)c1c(O)c3c(c(O)c1C2=O)C[C@@](O)(C(C)=O)C[C@@H]3O[C@H]1C[C@H](N)[C@H](O)[C@H](C)O1 [Dau, Daunomycin]
315
